B1: USP39 (parent)
chain: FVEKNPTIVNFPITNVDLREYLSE

Variants of: B1
test-method-notes: protein stability index of a GFP-peptide fusion (GPS, HEK-293T) (PSI 1-6); higher = more stable;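 also: lentivirally expressed fusions sorted by FACS into six bins by GFP to DsRed ratio, PSI derived from sequencing read proportions per bin multiplied by bin number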
experimental-parameters: c terminus: a fixed tail appended
Each record here notes measured protein stability index.
Give the figure by itself; no unit, no explanation.

[
  {
    "mutation-name": "V16D",
    "protein stability index": 1.89
  },
  {
    "mutation-name": "L22N",
    "protein stability index": 1.47
  },
  {
    "mutation-name": "I13D",
    "protein stability index": 2.17
  }
]

// query Look up protein stability index: `V16K`
// result 1.74

// query Look up protein stability index: `T14C`
// result 1.72

// query Look up protein stability index: `I13V`
// result 2.03

// query Look up protein stability index: `K4I`
// result 1.07

// query Look up protein stability index: `L22G`
// result 2.12

// query Look up protein stability index: `P6I`
// result 2.61

// query Look up protein stability index: `E3R`
// result 1.38

// query Look up protein stability index: `N10L`
// result 3.29

// query Look up protein stability index: `L22W`
// result 1.74

// query Look up protein stability index: `R19D`
// result 1.44

// query Look up protein stability index: `V2G`
// result 3.51

// query Look up protein stability index: `P6V`
// result 2.38

// query Look up protein stability index: `L18P`
// result 1.24

Cited source for all entries: the supplement of paper PMC10567573
